Provenance of the data: patent US7332482B2

Molecular target: AR (Homo sapiens, UniProt P10275)
Sequence (P10275 1-920): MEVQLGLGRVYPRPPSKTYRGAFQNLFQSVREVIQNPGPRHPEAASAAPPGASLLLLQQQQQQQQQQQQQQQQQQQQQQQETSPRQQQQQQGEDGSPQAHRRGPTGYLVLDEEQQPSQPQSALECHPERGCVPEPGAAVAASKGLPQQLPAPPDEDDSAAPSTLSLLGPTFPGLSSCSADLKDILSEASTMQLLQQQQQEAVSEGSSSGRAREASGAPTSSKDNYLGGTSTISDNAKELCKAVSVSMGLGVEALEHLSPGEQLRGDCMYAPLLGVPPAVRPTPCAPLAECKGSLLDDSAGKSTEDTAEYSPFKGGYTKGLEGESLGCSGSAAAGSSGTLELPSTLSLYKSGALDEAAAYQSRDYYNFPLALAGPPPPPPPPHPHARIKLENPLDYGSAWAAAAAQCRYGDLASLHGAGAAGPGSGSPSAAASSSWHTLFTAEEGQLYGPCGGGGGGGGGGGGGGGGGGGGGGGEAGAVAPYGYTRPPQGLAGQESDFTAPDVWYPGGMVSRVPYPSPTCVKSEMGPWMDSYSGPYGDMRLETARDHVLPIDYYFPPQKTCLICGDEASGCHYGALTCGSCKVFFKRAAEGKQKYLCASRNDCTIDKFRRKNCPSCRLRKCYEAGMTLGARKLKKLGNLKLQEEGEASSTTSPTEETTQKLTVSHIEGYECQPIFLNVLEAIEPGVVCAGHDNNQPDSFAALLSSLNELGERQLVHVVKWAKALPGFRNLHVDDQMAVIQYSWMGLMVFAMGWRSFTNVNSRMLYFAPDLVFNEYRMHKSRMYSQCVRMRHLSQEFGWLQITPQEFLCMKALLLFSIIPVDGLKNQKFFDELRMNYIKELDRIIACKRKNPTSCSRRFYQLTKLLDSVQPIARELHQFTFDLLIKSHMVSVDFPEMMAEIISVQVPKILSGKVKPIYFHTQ
Test: [3H]R1881 binding assay on cytosol fractions of BPH fragments
Design: from tissue; host or cells: human BPH prostatic tissue, cytosol fraction
pKd: −log10 of the molar value.
parameter-measured: pKd

stdin: Return reported pKd; argument: C=C1/C(=C\C=C2/CCC[C@]3(C)C([C@@H](C)C/C=C/C(O)(CC)CC)=CC[C@@H]23)C[C@@H](O)C[C@@H]1F
stdout: < 4.00

----------
Biological target: 5α reductase type 1 (Homo sapiens, UniProt P18405)
Sequence (P18405 whole entry): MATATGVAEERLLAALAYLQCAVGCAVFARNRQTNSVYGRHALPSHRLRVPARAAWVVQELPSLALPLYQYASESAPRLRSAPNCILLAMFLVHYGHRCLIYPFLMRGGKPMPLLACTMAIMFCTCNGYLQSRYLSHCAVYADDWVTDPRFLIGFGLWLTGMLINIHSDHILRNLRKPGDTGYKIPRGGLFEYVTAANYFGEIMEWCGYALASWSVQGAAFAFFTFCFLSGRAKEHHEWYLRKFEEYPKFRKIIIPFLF
Assay: 5α reductase inhibition test in CHO 1827 cells
Conditions: CHO cells transfected with type 1, n=3
Procedure: CHO-1827 and CHO-1829 cells, transfected with 5α reductase type 1 (5αR-1) or type 2 (5αR-2), respectively (see Steers W. Urology (2001) 58 p 17-24), were maintained in Ham's F12 medium supplemented with 5% FCS. 5α reductase inhibition assay was performed using CHO 1827 cells, transfected with 5αR-1, or CHO 1829 cells, transfected with 5αR-2, as described (see Guarna A, et al. Journal of Medicinal Chemistry (2000) 43 3718-3735.). […]
parameter-measured: IC50 (nM)
Supply the numeric figure in nM, leaving out any unit text.

stdin: Notebook entry, 5α reductase type 1 (Homo sapiens, UniProt P18405) assay: IC50 of CC(C)(C)NC(=O)[C@H]1CC[C@H]2[C@@H]3CC[C@H]4NC(=O)C=C[C@]4(C)[C@H]3CC[C@]12C [finasteride, reference compound] = ?
stdout: 659
